Assay: Clinical pharmacokinetics: plasma CYH33 and I27 by LC/MS/MS
Assay type: in vivo, human
Details: human, plasma, oral, 1 mg, CYH33, Cycle 1 Day 1, 1 mg (n = 1); read-out: Cmax, mean (CV%)
reported.metric: Cmax
Please make sure the unit comes right after the number.

Specify measured Cmax for COC(=O)Nc1cc(C(F)(F)F)c(-c2nc(N3CCOCC3)c3cc(CN4CCN(S(C)(=O)=O)CC4)cn3n2)cn1 .
4.6 ng/mL

---

Test: Clinical pharmacokinetics: plasma CYH33 and I27 by LC/MS/MS
Type: in vivo, human
Details: human, plasma, oral, 40 mg, CYH33, Cycle 1 Day 1, 40 mg (n = 3); read-out: Cmax, mean (CV%)
reported.metric: Cmax (ng/mL)
Please reply with the bare figure in ng/mL and do not write the unit itself.

Specify measured Cmax for COC(=O)Nc1cc(C(F)(F)F)c(-c2nc(N3CCOCC3)c3cc(CN4CCN(S(C)(=O)=O)CC4)cn3n2)cn1 [CYH33] .
97.9
